- Assay procedure: small-molecule microarray binders of probe aWnt5a, primary screen, biochemical, biotinylated probe, 635/667 nm fluorescence (AID 1113);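 also: score merges 667 nm fluorescence intensity with signal-to-noise per printed feature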
- Conditions: higher = more signal
Answer NOT MET if composite z-score is under 0.004, and MET if it is 0.004 or more.

**Query** Does `O=C1O[C@H](c2ccccc2)[C@H](c2ccccc2)N2[C@H]1[C@@H](C(=O)N1CCCCCCC1)[C@]1(C(=O)Nc3ccc(C#CC4=CCCCC4)cc31)[C@H]2c1ccc(OCCO)cc1` have a reported composite z-score of at least 0.004?
**Result** MET

**Query** Hello, I need to know if `C=CCOC(=O)[C@@H]1[C@H]2C(=O)O[C@H](c3ccccc3)[C@H](c3ccccc3)N2[C@H](c2ccc(OCCOC(=O)[C@H]3C[C@H]4C(=O)N5CCC[C@H]5C(=O)N4[C@H]3c3ccc(O)cc3)cc2)[C@@]12C(=O)Nc1ccc(I)cc12` has measured composite z-score not below 0.004. Thanks!
**Result** NOT MET

**Query** Is composite z-score at least 0.004? Consider `COc1cc2c(cc1OC)CN(C(=O)[C@@H]1[C@H]3C(=O)O[C@H](c4ccccc4)[C@H](c4ccccc4)N3[C@H](c3ccccc3OCCO)[C@@]13C(=O)Nc1ccc(C#CCCO)cc13)CC2`
**Result** NOT MET

**Query** Does the reported composite z-score for `C=C(COC)/C(=C/C[C@H](OC(C)=O)c1ccc(CO)o1)c1cc(C(=O)OC)ccc1OC` fall at or above the 0.004 mark?
**Result** NOT MET

**Query** Threshold query (composite z-score >= 0.004) on `O=C(N1CCCCC1)[C@]1(Cc2ccccc2)N=C(c2ccc(OCCCO)cc2)O[C@@H]1c1ccccc1`
**Result** MET

**Query** Does `COCCOC(=O)N1C(=O)[C@@]2(c3ccccc31)[C@H](c1ccccc1OCCO)N1[C@H](c3ccccc3)[C@H](c3ccccc3)OC(=O)[C@H]1[C@@H]2C(=O)N1CCN(c2ncccn2)CC1` have a reported composite z-score of at least 0.004?
**Result** NOT MET

**Query** Can `CC(C)C(=C=CC[C@H](O)c1ccc(OCCO)cc1)CCO` be said to have composite z-score at or above 0.004?
**Result** NOT MET

**Query** Is reported composite z-score greater than or equal to 0.004 here: O=C(OCc1ccccc1)C1=CCC2c3[nH]c4ccccc4c3C(=O)C1N2S(=O)(=O)c1ccccc1[N+](=O)[O-] (configuration not stated)
**Result** MET

**Query** Does `Cc1ccc(N2C(=O)c3ccccc3[C@@H](C(=O)NC3CC3)[C@@H]2c2ccc(CO)cc2)nc1` have a reported composite z-score of at least 0.004?
**Result** NOT MET

**Query** Has `O=C(c1ccccc1)N1C(=O)[C@]2(COC(c3ccc(OCCCO)cc3)=N2)Cc2ccccc21` a recorded composite z-score greater than or equal to 0.004?
**Result** NOT MET

**Query** State whether the measured composite z-score reaches 0.004, counting equality as reaching it, for `O=C(c1ccccc1)N1C(=O)[C@@]2(Cc3ccccc31)N=C(c1ccc(OCCCO)cc1)O[C@H]2c1ccccc1`
**Result** MET

**Query** Is composite z-score at least 0.004? Consider `COC(=O)C(CC#Cc1ccc2c(c1)[C@]1(C(=O)N2)[C@H](c2ccc(OCCO)cc2)N2[C@H](c3ccccc3)[C@H](c3ccccc3)OC(=O)[C@H]2[C@@H]1C(=O)N1CCc2cc(OC)c(OC)cc2C1)C(=O)OC`
**Result** MET

**Query** Entry `CN(C)C(=O)[C@@]1(CCS(=O)(=O)c2ccccc2)COC(c2ccc(OCCCO)cc2)=N1` : is its composite z-score no less than 0.004?
**Result** NOT MET

**Query** # bool: composite z-score of `O=C1C[C@@](C(=O)NCC(F)(F)F)(c2ccc([N+](=O)[O-])cc2)[C@@H](c2ccc(CO)cc2I)N1C1CCCCC1` >= 0.004
**Result** NOT MET

**Query** Could you please find out whether C=CCC(OC(C)=O)[C@@H]1[C@@H](N(Cc2ccc(-c3ccccc3)cc2)C(=O)Cc2ccc(OC)cc2)c2cc(OCCCO)ccc2N1C(=O)Cc1ccc2ccccc2c1 (some centres not stated) has composite z-score that meets 0.004 or exceeds it?
**Result** NOT MET

**Query** Item `C=CCN1C(=O)[C@@]2(Cc3ccccc31)N=C(c1ccc(OCCCO)cc1)O[C@H]2c1ccccc1` with composite z-score of 0.004 or above?
**Result** MET

**Query** Please check the record `COCCOC(=O)N1C(=O)[C@@]2(c3ccccc31)[C@H](c1ccc(O)cc1)N1[C@H](c3ccccc3)[C@H](c3ccccc3)OC(=O)[C@H]1[C@@H]2C(=O)Nc1nc2ccccc2s1` and state if its composite z-score is at or above 0.004.
**Result** NOT MET

**Query** Dear colleague, could you confirm whether `COC(=O)[C@H](Cc1ccccc1)N1CC2=C[C@@H](C3CC3)n3c(=O)n(C)c(=O)n3[C@H]2[C@@H]1[C@@H](O)Cc1ccccc1` has composite z-score at or above 0.004?
**Result** NOT MET

**Query** Please tell me: is the molecule `CC(C)NC(=O)[C@@]1(c2ccc([N+](=O)[O-])cc2)CC(=O)N(C2CCCCC2)[C@@H]1c1ccc(CO)cc1I` at or over 0.004 in terms of composite z-score?
**Result** MET

**Query** Is the recorded value of composite z-score equal to or greater than 0.004 for this molecule? `CN(C)CCCCCCNC(=O)[C@@H]1C[C@@H]2C(=O)N[C@@H](Cc3ccccc3)C(=O)N2[C@@H]1c1ccc(O)cc1`
**Result** NOT MET

**Query** Decide: is the reported value of composite z-score for `Cc1ccc(S[C@]2(C(=O)O)CC(=O)N(C(C)C)[C@@H]2c2ccc(CO)cc2I)cc1` equal to or greater than 0.004?
**Result** MET

**Query** Does the reported composite z-score for `O=C(NCCN1CCOCC1)[C@@H]1c2ccccc2C(=O)N(C2CCCCC2)[C@H]1c1ccc(CO)cc1` fall at or above the 0.004 mark?
**Result** NOT MET

**Query** Does composite z-score meet or surpass 0.004 for N#Cc1ccc(NN2C(C(O)C(c3ccccc3)c3ccccc3)C=CC3C(=O)N(c4ccccc4)C(=O)C32)cc1 (configuration not stated) ?
**Result** MET

**Query** Could you please find out whether `C=CCOC(=O)[C@H]1[C@@H]2C(=O)O[C@@H](c3ccccc3)[C@@H](c3ccccc3)N2[C@@H](c2ccc(OCCOC(=O)[C@@H]3C[C@@H]4C(=O)N[C@@H](CC(C)C)C(=O)N4[C@@H]3c3ccc(O)cc3)cc2)[C@]12C(=O)Nc1ccccc12` has composite z-score that meets 0.004 or exceeds it?
**Result** MET

**Query** # check: composite z-score of `CCS[C@H]1[C@@H](C(=O)O)[C@H](c2ccc(C)cc2)N(S(=O)(=O)c2ccc(C)cc2)[C@@H]1CC` is greater than or equal to 0.004
**Result** NOT MET

**Query** Confirm if composite z-score reported for the molecule C=C(C)[C@@H]1CC=C(C(O)C2C=CC3C(=O)N(C)C(=O)C3N2Nc2ccccc2)CC1 (some centres not stated) is 0.004 or above.
**Result** NOT MET

**Query** Is the recorded value of composite z-score equal to or greater than 0.004 for this molecule? `CC(C)(C)OC(=O)CC[C@]1(C(=O)N2CCOCC2)N=C(c2ccc(OCCCO)cc2)O[C@H]1c1ccccc1N=[N+]=[N-]`
**Result** NOT MET

src = PubChem BioAssay
